Parameter koff: see the listing below.
- experimentalTarget: T1, human IL-25 expressed with a C-terminal myc-myc-hexahistidine tag (human)
- T1 construct: also called human IL-25-MMH; hIL-25-MMH
- T1 chain: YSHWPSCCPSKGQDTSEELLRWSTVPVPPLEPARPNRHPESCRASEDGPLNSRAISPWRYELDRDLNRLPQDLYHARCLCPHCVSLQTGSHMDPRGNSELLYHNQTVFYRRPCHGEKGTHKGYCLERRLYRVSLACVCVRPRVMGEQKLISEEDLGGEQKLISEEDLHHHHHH
- protocol: SPR Biacore, captured mAb, 25°C;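 also: biacore 4000 SPR with IL-25-MMH as analyte over purified anti-IL-25 antibodies, association and dissociation rates derived from fitting sensorgrams to a 1:1 binding model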
Don't forget the unit after the value.

* H4H10876P (antibody, human IgG4, V domains shown) VH: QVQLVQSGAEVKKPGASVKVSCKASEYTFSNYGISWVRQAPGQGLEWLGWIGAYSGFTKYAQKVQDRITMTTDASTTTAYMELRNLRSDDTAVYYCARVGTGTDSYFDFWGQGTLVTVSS VL: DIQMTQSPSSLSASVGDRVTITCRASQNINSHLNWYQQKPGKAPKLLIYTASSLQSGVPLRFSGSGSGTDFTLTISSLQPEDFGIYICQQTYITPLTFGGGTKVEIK | 4.78e-05 s⁻¹
* H4H10897P (antibody, human IgG4, V domains shown) VH: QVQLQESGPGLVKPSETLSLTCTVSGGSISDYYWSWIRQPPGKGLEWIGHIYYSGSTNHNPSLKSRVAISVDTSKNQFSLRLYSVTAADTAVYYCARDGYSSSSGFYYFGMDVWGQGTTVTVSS VL: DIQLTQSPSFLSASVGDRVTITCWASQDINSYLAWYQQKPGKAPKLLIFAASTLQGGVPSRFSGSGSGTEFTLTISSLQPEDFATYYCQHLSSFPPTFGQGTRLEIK | 7.87e-05 s⁻¹
* H4H10901P (antibody, human IgG4, V domains shown) VH: QLQLQESGPGLVRPSETLSLTCSVSSGSIRSSNYYWGWIRQPPGKGLEWIGNIYYSGNTFYNPSLKGRVTISVDTSKNQFSLKLSSVTATDTAVYYCARQGYSDYELNWFDPWGQGTLVTVSS VL: DIVMTQSPDSLVLSLGERATFNCKSSQSVLDSSNNKNYLAWYQQKPGQPPKLLIYWASTRESGVPDRFSGSGSGTDFSLTISSLQAEDVALYYCQQFYNSPWTFGQGTKVEIK | 5.79e-05 s⁻¹

Field: next binder
Task: What does the data say about its koff? Entry: H4H10905P (antibody, human IgG4, V domains shown) VH: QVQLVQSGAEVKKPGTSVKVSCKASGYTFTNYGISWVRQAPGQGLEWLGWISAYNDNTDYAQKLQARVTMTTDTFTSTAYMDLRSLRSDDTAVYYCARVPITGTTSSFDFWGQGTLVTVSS VL: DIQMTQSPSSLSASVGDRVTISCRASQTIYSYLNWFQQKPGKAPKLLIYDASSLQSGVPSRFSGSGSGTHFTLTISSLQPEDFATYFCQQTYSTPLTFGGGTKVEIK
Output: 0.000109 s⁻¹

Values from patent US20160083466A1
